Tested on: MV4:11 human cancer cell lines
Test: Anti-proliferative activity, CellTiter-Glo viability assay, 7 day protocol
Type: cell-based
Conditions: Homo sapiens, MV4-11, 168 h, MV4:11 cells, 7 day incubation, read-out: GI50 on cellular proliferation of MV4:11 human cancer cell lines
The entries below are paired with their reported GI50.
Number in µM, nothing else.

Cc1ncccc1-c1cc(Cn2ccn(C)c2=N)cc(C(=O)NC(C2CC2)C2CC2)c1	30

Now consider the entry below.
Enter measured GI50, system MV4:11 human cancer cell lines, for the compound shown: COc1cnccc1-c1cc(Cn2ccn(C)c2=N)cc(C(=O)NCc2ccc(Cl)c(Cl)c2)c1
6.2

---

The entries below are paired with their reported GI50.
Tested on: MV4:11 human cancer cell lines
Experiment: Anti-proliferative activity, CellTiter-Glo viability assay, 7 day protocol
Assay type: cell-based
Settings: Homo sapiens, MV4-11, 168 h, MV4:11 cells, 7 day incubation, read-out: GI50 on cellular proliferation of MV4:11 human cancer cell lines

Known results for compounds:
COc1cc([C@@H](NC(=O)c2cc(CN3CCCC3=N)cc(-c3cn(C)nc3C(F)(F)F)c2)C2CC2)ccc1F	100 nM
Cc1ccnc(C(NC(=O)c2cc(Cn3ccn(C)c3=N)cc(-c3ccc(F)cc3OC(F)F)c2)C2CC2)c1 (stereo not shown)	1900 nM
Cc1ccnc([C@@H](NC(=O)c2cc(Cn3ccn(C)c3=N)cc(-c3ccc(F)cc3C)c2)C2CC2)c1	210 nM
Cc1cc([C@@H](NC(=O)c2cc(Cn3ccoc3=N)cc(-c3ccc(F)cc3Cl)c2)C2CC2)ccc1F	120 nM
Cc1cc([C@@H](NC(=O)c2cc(Cn3ccn(C4CC4)c3=N)cc(-c3ccc(F)cc3OC(F)F)c2)C2CC2)ccc1F	470 nM
Cc1cc([C@@H](NC(=O)c2cc(Cn3ccoc3=N)cc(-c3cn(C)nc3C(F)(F)F)c2)C2CC2)ccc1F	< 100 nM

Now consider the entry below.
Enter measured GI50, system MV4:11 human cancer cell lines, for the compound shown: Cc1ccc2[nH]ncc2c1-c1cc(Cn2ccn(C)c2=N)cc(C(=O)NCc2ccc(Cl)c(Cl)c2)c1
3100 nM

---

Tested on: MV4:11 human cancer cell lines
Assay: Anti-proliferative activity, CellTiter-Glo viability assay, 7 day protocol
Assay type: cell-based
Details: Homo sapiens, MV4-11, 168 h, MV4:11 cells, 7 day incubation, read-out: GI50 on cellular proliferation of MV4:11 human cancer cell lines
Mark Met only for GI50 values smaller than 500 nM; exact matches and larger values are Not met.

Worked examples, 2 molecules total:
Cn1cc(-c2cc(Cn3ccn(C4CC4)c3=N)cc(C(=O)N[C@H](c3ccc(Cl)c(Cl)c3)C3CC3)c2)c(C(F)(F)F)n1 [Example 159]	Met
COc1cc(OC)cc(C(NC(=O)c2cc(Cn3ccoc3=N)cc(-c3ccc(F)cc3OC(F)F)c2)C2CC2)c1 (stereo not shown) [Example 236]	Met

Now turn to the next molecule.
Please state whether GI50 is below 500 nM for CCn1cc(-c2cc(Cn3ccn(C4CC4)c3=N)cc(C(=O)N[C@H](c3ccc(F)c(Cl)c3)C3CC3)c2)c(C(F)(F)F)n1 [Example 202]
Met

---

Target: WDR5 (Homo sapiens (Human), UniProt P61964)
Assay: TR-FRET binding assay (displacement of 10mer-Thr-FAM probe from WDR5)
Settings: read-out: Ki for Inhibition of WDR5 by TR-FRET assay; TR-FRET, 10mer-Thr-FAM probe, WDR5-His tag 2 nM, pH 7.0
pKi: −log10 of the molar value.
Tick true if pKi is 9 or greater. Tick false if pKi is less than 9.

Worked examples, 10 molecules total:
Cc1cn(Cc2cc(C(=O)N[C@H](c3ccc(F)c(C)c3)C3CC3)cc(-c3cccnc3C(F)(F)F)c2)c(=N)o1	true
CCn1cc(-c2cc(CN3CCSC3=N)cc(C(=O)N[C@H](c3ccc(F)c(C)c3)C3CC3)c2)c(C(F)(F)F)n1	true
CCn1cc(-c2cc(Cn3ccn(C)c3=N)cc(C(=O)N[C@H](c3ccc(F)c(C)c3)C3CC3)c2)c(C)n1	true
Cc1cc(CNC(=O)c2cc(Cn3ccn(C)c3=N)cc(-c3cnc(F)cc3C)c2)ccc1Cl	false
Cc1cc([C@@H](NC(=O)c2cc(Cn3ccn(C)c3=N)cc(-c3cn(CC(C)C)nc3C(F)(F)F)c2)C2CC2)ccc1F	true
Cc1cc([C@@H](NC(=O)c2cc(Cn3ccn(C)c3=N)cc(-c3ccc(F)cc3C(F)(F)F)n2)C2CC2)ccc1F	true
Cc1cc([C@@H](NC(=O)c2cc(Cn3ccn(C)c3=N)cc(-c3cnc(F)cc3C)c2)C2CC2)ccc1F	false
Cc1ccnc(C(NC(=O)c2cc(Cn3ccn(C)c3=N)cc(-c3ccc(F)cc3C(F)(F)F)n2)C2CC2)c1 (centres unmarked)	true
COC(=O)CC(NC(=O)c1cc(Cn2ccn(C)c2=N)cc(-c2ccc(F)cc2C(F)(F)F)c1F)c1ccc(Cl)c(Cl)c1 (centres unmarked)	true
COc1ccnc(CNC(=O)c2cc(Cn3ccn(C)c3=N)cc(-c3cccnc3C)c2)c1	false

Now turn to the next molecule.
Hello, I need to know if Cn1ccn(Cc2cc(C(=O)NC(CC(=O)O)c3ccc(Cl)c(Cl)c3)nc(-c3ccc(F)cc3C(F)(F)F)c2)c1=N (centres unmarked) has measured pKi not below 9. Thanks!
true

---

Target: WDR5 (Homo sapiens (Human))
Assay: TR-FRET binding assay (displacement of 10mer-Thr-FAM probe from WDR5)
Conditions: read-out: Ki for Inhibition of WDR5 by TR-FRET assay; TR-FRET, 10mer-Thr-FAM probe, WDR5-His tag 2 nM, pH 7.0
readout: Ki (nM)
Number in nM, nothing else.

COc1cc(-c2cc(Cn3ccn(C)c3=N)cc(C(=O)NCc3ccc(Cl)c(Cl)c3)c2)c(F)cn1	0.56
CCn1cc(-c2cc(CN3CCOC3=N)cc(C(=O)NCC3CCOC3)c2)c(C(F)(F)F)n1 (stereo not shown)	20
Cc1cc(CNC(=O)c2cc(Cn3ccn(C)c3=N)cc(-c3c(C)cc(F)cc3F)c2)ccc1Cl	0.56

Now consider the entry below.
Complete the entry with Ki for Cc1ccnc(C(NC(=O)c2cc(Cn3ccn(C)c3=N)cc(-c3ccnc(C)c3)c2)C2CC2)c1 (stereo not shown)
0.8

---

Target: UniProt P61964
Assay: TR-FRET binding assay (displacement of 10mer-Thr-FAM probe from WDR5)
Details: read-out: Ki for Inhibition of WDR5 by TR-FRET assay; TR-FRET, 10mer-Thr-FAM probe, WDR5-His tag 2 nM, pH 7.0
readout: Ki (pM)
Number in pM, nothing else.

Known results for molecules:
Cc1cc([C@@H](NC(=O)c2cc(Cn3ccoc3=N)cc(-c3cncnc3C(F)(F)F)c2)C2CC2)ccc1F	620
Cc1cc([C@@H](NC(=O)c2cc(Cn3ccn(C)c3=N)cc(N3CCCC3)c2)C2CC2)ncc1F	590
CCn1cc(-c2cc(Cn3ccn(C4CC4)c3=N)cc(C(=O)N[C@H](c3ccc(F)c(F)c3)C3CC3)c2)c(C(F)(F)F)n1	110

Now consider the entry below.
Complete the entry with Ki for Cc1cc(CNC(=O)c2cc(Cn3ccn(C)c3=N)cc(-c3ccc(F)cc3C)n2)ccc1Cl
1200

---

The entries below are paired with their reported GI50.
Tested on: MV4:11 human cancer cell lines
Test: Anti-proliferative activity, CellTiter-Glo viability assay, 7 day protocol
Assay type: cell-based
Conditions: Homo sapiens, MV4-11, 168 h, MV4:11 cells, 7 day incubation, read-out: GI50 on cellular proliferation of MV4:11 human cancer cell lines
Number in nM, nothing else.

Known results for compounds:
Cc1cc([C@@H](NC(=O)c2cc(Cn3ccn(C)c3=N)cc(C(C)C(F)(F)F)c2)C2CC2)ccc1F (stereo partly shown)	940
Cc1cc([C@@H](NC(=O)c2cc(Cn3ccn(C)c3=N)cc(-c3cccnc3C(F)(F)F)n2)C2CC2)ccc1F	7600

Complete the entry with GI50 for COc1cc(OC)cc(C(NC(=O)c2cc(Cn3ccoc3=N)cc(-c3cccnc3C(F)(F)F)c2)C2CC2)c1 (stereo not shown)
180

---

System: MV4:11 human cancer cell lines
Experiment: Anti-proliferative activity, CellTiter-Glo viability assay, 7 day protocol
Assay type: cell-based
Details: Homo sapiens, MV4-11, 168 h, MV4:11 cells, 7 day incubation, read-out: GI50 on cellular proliferation of MV4:11 human cancer cell lines
The entries below are paired with their reported log10 GI50.
Hello, just confirming the data are log10 of GI50 with units of nM.

Cc1cc([C@@H](NC(=O)c2cc(Cn3ccn(C)c3=N)cc(C3CCC3)c2)C2CC2)ccc1F	2.56

Now consider the entry below.
Complete the entry with log10 GI50 for CCn1cc(-c2cc(Cn3ccn(C)c3=N)cc(C(=O)N[C@H](c3ccc(F)c(F)c3)C3CC3)c2)c(C(F)(F)F)n1
1.90

Source: patent US10844044B2
